These measurements were taken from patent US20060069132A1.

- Tested on: cocklebur
- ASSAY NAME: Test C pre-/postemergence herbicide test
- Format: in vivo, Xanthium strumarium
- STATED CONDITIONS: 250 g ai/ha; scale 0-100; preemergence
Provide the recorded Plant response rating, Cocklebur for the entries that follow.
Answers are plain numbers.

Here are 4 molecules together with their reported answers.
## Task Please give the measured Plant response rating, Cocklebur for this molecule: Cc1nn(C(C)(C)C)nc1C(=O)Nc1cccc(C(=S)N(C)C)c1
## Result 45

## Task Proceed to CCN(CC)C(=O)c1cccc(NC(=O)c2cc(C(C)(C)C)nn2C)n1
## Result 0

## Task Also CCNC(=O)c1ccc(F)c(NC(=O)c2cc(C3(C)CC3)nn2CC)c1 ?
## Result 5

## Task Please give the result for CCN1N=C(C(C)(C)C)CC1C(=O)Nc1cc(C(=O)N2CC=CC2)ccc1F (racemic) too.
## Result 5

Let's switch to this molecule now.
## Task What value of Plant response rating, Cocklebur has been recorded for this entry: CCc1nc(C(C)(C)C)sc1C(=O)Nc1cccc(C(=O)N(CC)CC)c1
## Result 0

---

- Tested on: barnyardgrass
- ASSAY NAME: Test C flooded paddy test
- Type: in vivo, Echinochloa crus-galli
- STATED CONDITIONS: 500 g ai/ha, visual rating after 12 to 14 days, scale 0 to 100 (0 no effect, 100 complete control)
READOUT NAME: Plant response rating, Barnyardgrass
Give bare numbers.

Past entries and their recorded results:
## Task Quick check: Plant response rating, Barnyardgrass on barnyardgrass, item CCNC(=O)c1cccc(NC(=O)c2cc(C(C)(C)C)nn2CC)n1 ?
## Result 60

## Task Another: CCc1nn(C(C)(C)C)cc1C(=O)Nc1cccc(C(C)=O)c1
## Result 75

## Task Now give it for CCOc1cccc(NC(=O)c2cc(C(C)(C)C)nn2CC)c1 too.
## Result 80

## Task Note, next up: CCn1nc(C(C)(C)C)cc1C(=O)Nc1cc(C(=O)NCC2CC2)ccn1
## Result 65

## Task Then CCNC(=O)c1ccc(F)c(NC(=O)C2CC(C(C)(C)C)=NN2CC)c1 (racemic) ?
## Result 90

## Task Proceed to C=CCn1nc(C(C)(C)C)cc1C(=O)Nc1cccc(C(=O)NCC)c1
## Result 80

## Task Likewise for CCn1nc(C(C)(C)C)cc1C(=O)Nc1cccc(OS(=O)(=O)CC)c1 ?
## Result 70

## Task Param item: CC(=O)c1cccc(NC(=O)c2cc(C(C)(C)C)nn2CC(F)(F)F)c1
## Result 25

Turning to the following compound.
## Task What Plant response rating, Barnyardgrass appears in the records for this compound with barnyardgrass? CCc1nn(C(C)C)nc1C(=O)Nc1cccc(C(=O)N(C)CC)c1
## Result 95

---

- System: barnyardgrass
- ASSAY NAME: Test B pre-/postemergence herbicide test
- Format: in vivo, Echinochloa crus-galli
- STATED CONDITIONS: postemergence, 125 g ai/ha; visual rating, scale 0 (no effect) to 100 (complete control)
I'd appreciate it if you could supply Barnyardgrass plant response rating values for the items below.

## Task Looking for the measured Barnyardgrass plant response rating of CCn1nc(C(C)(C)C)cc1C(=O)Nc1cccc(OCCCF)c1 , can you help?
## Result 10

Each of the following entries comes with a recorded value; kindly state Barnyardgrass plant response rating for each.
1. CCn1nc(C(C)(C)C)cc1C(=O)Nc1cc(C(=O)NC(C)(C)C)ccn1
2. C=CCn1nc(C(C)(C)C)cc1C(=O)Nc1cccc(C(=O)NCC)c1
3. CC(=O)c1cccc(NC(=O)c2cc(C(C)(C)C)nn2CC(F)(F)F)c1
4. CCNC(=O)c1ccc(F)c(NC(=O)c2sc(C(C)(C)C)nc2CC)c1
5. CCn1nc(C(C)(C)C)cc1C(=O)Nc1cccc(C(=O)NCC(C)C)c1
6. CC(=NO)c1cccc(NC(=O)c2cc(C(C)(C)C)nn2C)c1

## Result
1: 20; 2: 20; 3: 0; 4: 10; 5: 20; 6: 0

---

- Test system: rice
- ASSAY NAME: Test C flooded paddy test
- Format: in vivo, Oryza sativa
- STATED CONDITIONS: 250 g ai/ha, scale of 0 to 100, 0 is no effect, 100 is complete control
Mark met for reported Rice plant response rating of 70 or greater; mark not met for anything smaller.

Example results:
## Task Hello, I need to know if CCc1nc(C(C)(C)C)sc1C(=O)Nc1cc(C(=O)N(C)C)ccc1F [Compound 225] has measured Rice plant response rating not below 70. Thanks!
## Result met

## Task Another molecule: CCn1nc(C(C)(C)C)cc1C(=O)Nc1cc(C(=O)N(C)OC)ccc1F [Compound 244]
## Result met

## Task Entry to check: CCOC(=O)c1cc(NC(=O)c2cc(C(C)(C)C)nn2CC)c(F)cc1OC [Compound 76]
## Result met

## Task Again, but for CCn1nc(C(C)(C)C)cc1C(=O)Nc1cccc(C(C)=O)c1 [Compound 122]
## Result not met

## Task // next record CCNC(=O)c1cccc(NC(=O)c2nn(C(C)C)nc2CC)c1 [Compound 357]
## Result not met

Others:
## Task Entry CCc1nn(C(C)C)nc1C(=O)Nc1cccc(C(=S)N(C)C)c1 [Compound 409] : is its Rice plant response rating no less than 70?
## Result not met

---

- Tested on: giant foxtail
- ASSAY NAME: Test B pre-/postemergence herbicide test
- Assay type: in vivo, Setaria faberi
- STATED CONDITIONS: Preemergence, 500 g ai/ha; scale 0 to 100
For each of the molecules below, state its Foxtail, Giant plant response rating.
Numbers only.

## Task Quick check: Foxtail, Giant plant response rating of CCNC(=O)c1cccc(NC(=O)c2cc(C(C)(C)C)nn2CCF)c1 [Compound 35] ?
## Result 100

## Task // query: CCn1nc(C(C)(C)C)cc1C(=O)Nc1cccc(C(=O)NCC2CC2)c1 [Compound 62]
## Result 90

## Task Please give the result for CCN(CC)C(=O)c1cccc(NC(=O)c2cc(C(C)(C)C)nn2CCF)c1 [Compound 36] too.
## Result 30

Okay, next one:
## Task Given the molecule CCn1nc(C(C)(C)C)cc1C(=O)Nc1cccc2c1CCN(C1CCCC1)C2=O [Compound 66] , what is its reported Foxtail, Giant plant response rating?
## Result 10

---

- Test system: cocklebur
- ASSAY NAME: Test B pre-/postemergence herbicide test
- Assay type: in vivo, Xanthium strumarium
- STATED CONDITIONS: postemergence, 500 g ai/ha; scale 0 to 100, 0 is no effect, 100 is complete control
Hi there, I'd appreciate the recorded Cocklebur plant response rating for every entry that follows.

## Task Tell me reported Cocklebur plant response rating for CCc1nn(C(C)(C)CC)nc1C(=O)Nc1cccc(OC(F)(F)F)c1 , tested with cocklebur.
## Result 30

## Task Now this one: C=CCNC(=O)c1cccc(NC(=O)c2nn(C(C)C)nc2CC)c1
## Result 10

## Task Also need CCn1nc(C(C)(C)C)cc1C(=O)Nc1ccnc(C(=O)N2CC=CC2)c1 , thanks.
## Result 20

## Task // query: Cc1nn(C(C)(C)C)nc1C(=O)Nc1cc(C(=O)N(C)C)ccc1F
## Result 0

## Task What do you get for CCn1nc(C(C)(C)C)cc1C(=O)Nc1cncc(C(=O)N2CC=CC2)n1 ?
## Result 10

Your task in this section: give Cocklebur plant response rating for each listed record.
1. C#CCNC(=O)c1ccc(F)c(NC(=O)c2nn(C(C)(C)C)nc2CC)c1
2. CCNC(=O)c1ccc(F)c(NC(=O)c2cc(C3(C)CC3)nn2CC)c1
3. CCNC(=O)c1ccc(F)c(NC(=O)c2cc(C(C)(C)C)nn2CC)n1

## Result
1. 0
2. 50
3. 30

## Task What value of Cocklebur plant response rating on cocklebur does CCN(C)C(=O)c1ccc(F)c(NC(=O)c2cc(C(C)(C)C)nn2CC)n1 have?
## Result 30

---

- System: corn
- ASSAY NAME: Test C pre-/postemergence herbicide test
- Assay type: in vivo, Zea mays
- STATED CONDITIONS: Preemergence, 500 g ai/ha; scale 0 to 100, 0 no effect, 100 complete control
Please go through the items and note down their Corn plant response rating.
Give bare numbers.

Reference set (3 entries):
## Task Missing value: Corn plant response rating, corn, entry C#CCNC(=O)c1cccc(NC(=O)c2cc(C(C)(C)C)nn2CC)n1 [Compound 147] . Fill in?
## Result 60

## Task Would you kindly repeat that for CCNC(=O)c1ccc(F)c(NC(=O)c2cn(C(C)(C)C)nc2CC)c1 [Compound 193] ?
## Result 100

## Task Also CCNC(=O)c1cccc(NC(=O)c2cc(C(C)(C)C)nn2CC)n1 [Compound 144] , if possible.
## Result 50

New cases:
## Task # query: Corn plant response rating | item C=Cn1nc(C(C)(C)C)cc1C(=O)Nc1cccc(C(=O)N(CC)CC)c1 [Compound 34] | system: corn
## Result 0
